Target: FPRL1 (Homo sapiens, UniProt P25090)
Construct: expressed in transfected cells
Sequence (P25090 1-351): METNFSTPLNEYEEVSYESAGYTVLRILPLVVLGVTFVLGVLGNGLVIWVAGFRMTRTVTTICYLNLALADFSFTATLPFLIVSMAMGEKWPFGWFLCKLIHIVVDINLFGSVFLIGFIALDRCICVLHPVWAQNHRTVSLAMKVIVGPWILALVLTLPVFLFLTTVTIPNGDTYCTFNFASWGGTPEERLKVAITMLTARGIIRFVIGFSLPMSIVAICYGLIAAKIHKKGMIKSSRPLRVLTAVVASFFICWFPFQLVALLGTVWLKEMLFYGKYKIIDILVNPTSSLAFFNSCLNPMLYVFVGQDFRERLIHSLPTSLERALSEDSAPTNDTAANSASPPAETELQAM
Assay: compound-induced calcium activity on FLIPR Tetra in CHO-Ga16 cells stably expressing FPRL1
Format: cell-based
Settings: relative efficacy
property label: FPRL1 (rel. eff.)

The examples below pair each entry with its known result.
{"columns": ["molecule", "measured target", "FPRL1 (rel. eff.)"],
 "data": [
  ["O=C(CN1C(=O)C2C(C1=O)C1CCC2C12CC2)Nc1ccc(Cl)cc1 (centres unmarked)", "FPRL1 (Homo sapiens, UniProt P25090)", "(1.0)"],
  ["O=C(CN1C(=O)C2C(C1=O)C1CCC2C12CC2)Nc1ccc(I)cc1 (centres unmarked)", "FPRL1 (Homo sapiens, UniProt P25090)", "(0.86)"],
  ["O=C(CN1C(=O)C2C(C1=O)C1CCC2C12CC2)Nc1ccc(Br)cc1 (centres unmarked)", "FPRL1 (Homo sapiens, UniProt P25090)", "(0.9)"],
  ["O=C(CN1C(=O)C2C(C1=O)C1C=CC2C12CC2)Nc1ccc(Br)cc1 (centres unmarked)", "FPRL1 (Homo sapiens, UniProt P25090)", "(0.91)"],
  ["COc1ccc(NC(=O)CN2C(=O)C3C(C2=O)C2CCC3C23CC3)cc1 (centres unmarked)", "FPRL1 (Homo sapiens, UniProt P25090)", "(1.0)"],
  ["O=C(CN1C(=O)C2C(C1=O)C1CCC2C12CC2)Nc1ccc(Cl)nc1 (centres unmarked)", "FPRL1 (Homo sapiens, UniProt P25090)", "(0.86)"],
  ["O=C(CN1C(=O)C2C(C1=O)C1CCC2C12CC2)Nc1ccc(F)cc1 (centres unmarked)", "FPRL1 (Homo sapiens, UniProt P25090)", "(0.9)"],
  ["CCc1ccc(NC(=O)CN2C(=O)C3C(C2=O)C2CCC3C23CC3)cc1 (centres unmarked)", "FPRL1 (Homo sapiens, UniProt P25090)", "(0.91)"]
]}

Data request: Tell me FPRL1 (rel. eff.) reported for CSc1ccc(NC(=O)CN2C(=O)C3C(C2=O)C2CCC3C23CC3)cc1 (centres unmarked)
Data returned: (1.0)
